Data origin: the supplement of paper PMC3334620

- system tested: Stp1 (UniProt B3LFK1)
- Sequence: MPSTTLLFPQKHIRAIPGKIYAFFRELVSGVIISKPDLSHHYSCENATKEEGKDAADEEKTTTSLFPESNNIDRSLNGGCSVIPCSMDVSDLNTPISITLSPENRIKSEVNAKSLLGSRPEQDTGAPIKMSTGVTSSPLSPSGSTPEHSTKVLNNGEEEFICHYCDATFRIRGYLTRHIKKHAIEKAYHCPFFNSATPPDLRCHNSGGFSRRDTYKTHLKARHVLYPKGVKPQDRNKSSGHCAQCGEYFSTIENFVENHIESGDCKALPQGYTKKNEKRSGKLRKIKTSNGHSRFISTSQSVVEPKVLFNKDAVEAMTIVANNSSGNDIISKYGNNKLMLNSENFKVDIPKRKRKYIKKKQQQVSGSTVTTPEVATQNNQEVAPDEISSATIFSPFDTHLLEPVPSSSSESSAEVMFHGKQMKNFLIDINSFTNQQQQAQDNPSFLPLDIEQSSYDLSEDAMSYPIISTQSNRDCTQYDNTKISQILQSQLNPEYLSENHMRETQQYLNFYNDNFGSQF
- assay summary: PBM E-score (8-mer binding enrichment) (E-score (-0.5 to 0.5)); higher = stronger / more preferred TF binding
- condition summary: protein concentration: 200 nM; construct: GST-full length
In all, about 33,000 sequences were measured (“E-score (-0.5 to 0.5)”: median about -0.016, highest 2% from about 0.32 on). This excerpt belongs to a sample that is enriched for the highest values.
# PBM E-score annotations

| polymer sequence | PBM E-score |
| --- | --- |
| ATCTCACG | 0.015 |
| CCGCTCTC | -0.0569 |
| AACGGCTA | 0.372 |
| ATGGCGTG | 0.102 |
| ACGGCGTC | 0.472 |
| AGGCTCTA | 0.15 |
| GGGGCGTA | -0.174 |
| ATCGGCTA | -0.108 |
| CCGGCGTA | 0.0906 |
| TAATAGTA | 0.24 |
| GTCGTCAC | -0.0794 |
| CCCCCTGC | -0.346 |
| TACGGCTA | 0.349 |
| CACGGCTA | 0.415 |
| ACCGGCTA | -0.0689 |
| GACGGCTA | 0.235 |
| GGGCTCTA | -0.0132 |
| ACACACTG | -0.0947 |
| GTCGGCTA | -0.0709 |
| AGGCTCTC | -0.137 |
| AGGGCGTC | 0.131 |
| GAAGTGTC | -0.0596 |
| GTTCAAAA | 0.185 |
